Overview of reported hERG current change (%, negative = inhibition) at 10uM across a group of molecules:
- TESTED SYSTEM: human ether-à-go-go-related gene (hERG) potassium channel (human)
- MEASUREMENT NOTES: primary screen, population patch clamp on CHO cells stably expressing hERG; higher = less effect of the substance
Out of some 310,000 compounds screened, about 14,000 (4.5%) showed an effect of 50% or more. Effects have a minus sign here. This excerpt belongs to a sample that is enriched for strong results.

Task: Form: Entry = Cc1ccc(-c2csc(NC(=O)CCNC(=O)c3ccco3)n2)cc1 | System = human ether-à-go-go-related gene (hERG) potassium channel (human) | hERG current change (%, negative = inhibition) at 10uM = ____
Output: 5.76%

Task: Form: Entry = O=C(O)C1CCCN(S(=O)(=O)c2cccc3cccnc23)C1 (stereo not shown) | System = human ether-à-go-go-related gene (hERG) potassium channel (human) | hERG current change (%, negative = inhibition) at 10uM = ____
Output: 10.9%

Task: Form: Entry = CCN1CCN(C(=O)c2ccc(Cl)c(S(=O)(=O)N3CCCCCC3)c2)CC1.Cl | System = human ether-à-go-go-related gene (hERG) potassium channel (human) | hERG current change (%, negative = inhibition) at 10uM = ____
Output: -60.9%

Task: Form: Entry = CCN1CCN(C(=O)c2ccc(Cl)c(S(=O)(=O)N3CCCCC3)c2)CC1 | System = human ether-à-go-go-related gene (hERG) potassium channel (human) | hERG current change (%, negative = inhibition) at 10uM = ____
Output: -69.8%

Task: Form: Entry = COc1cc(C2CC(=O)Oc3c2c(=O)n(C)c2ccccc32)ccc1O (stereo not shown) | System = human ether-à-go-go-related gene (hERG) potassium channel (human) | hERG current change (%, negative = inhibition) at 10uM = ____
Output: 14.7%

Task: Form: Entry = O=C(O)[C@@H]1CCCN(S(=O)(=O)c2cccc3cccnc23)C1 | System = human ether-à-go-go-related gene (hERG) potassium channel (human) | hERG current change (%, negative = inhibition) at 10uM = ____
Output: 11.6%

***
Task: Form: Entry = O=C(c1ccc(Cl)c(S(=O)(=O)N2CCOCC2)c1)N1CCN(Cc2ccccc2)CC1 | System = human ether-à-go-go-related gene (hERG) potassium channel (human) | hERG current change (%, negative = inhibition) at 10uM = ____
Output: -25.3%

Task: Form: Entry = CC(C)NC(=O)[C@@H]1CSC2c3ccccc3C(=O)N21 (stereo partly shown) | System = human ether-à-go-go-related gene (hERG) potassium channel (human) | hERG current change (%, negative = inhibition) at 10uM = ____
Output: 12.7%

Task: Form: Entry = O=C1C(Cl)=C(Nc2ccccc2O)C(=O)N1c1ccccc1 | System = human ether-à-go-go-related gene (hERG) potassium channel (human) | hERG current change (%, negative = inhibition) at 10uM = ____
Output: 0.891%

Task: Form: Entry = Cc1nn(-c2ccccc2)c(C)c1-c1cc(C(=O)N/N=C/c2cccnc2)[nH]n1 | System = human ether-à-go-go-related gene (hERG) potassium channel (human) | hERG current change (%, negative = inhibition) at 10uM = ____
Output: -18.7%

Task: Form: Entry = O=C(CCS(=O)(=O)c1ccc(Br)s1)NC1CCCC1 | System = human ether-à-go-go-related gene (hERG) potassium channel (human) | hERG current change (%, negative = inhibition) at 10uM = ____
Output: 6.05%

Task: Form: Entry = Cc1cc(OC(C)C(=O)NNC(=O)Nc2ccc(F)cc2F)cc(C)c1Cl (stereo not shown) | System = human ether-à-go-go-related gene (hERG) potassium channel (human) | hERG current change (%, negative = inhibition) at 10uM = ____;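 further: peak tail current of the secondary pulse compared with the same well before compound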
Output: 22.3%

Task: Form: Entry = O=C(C1CCCN(S(=O)(=O)c2cccc3cccnc23)C1)N1CCN(c2ccc(F)cc2)CC1 (stereo not shown) | System = human ether-à-go-go-related gene (hERG) potassium channel (human) | hERG current change (%, negative = inhibition) at 10uM = ____;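 further: peak tail current of the secondary pulse compared with the same well before compound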
Output: -67.5%

Task: Form: Entry = COc1ccc(C(C)=O)cc1COC(=O)c1cc(C)nc2ccccc12 | System = human ether-à-go-go-related gene (hERG) potassium channel (human) | hERG current change (%, negative = inhibition) at 10uM = ____;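 further: peak tail current of the secondary pulse compared with the same well before compound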
Output: 13.6%

###

- TESTED SYSTEM: human ether-à-go-go-related gene (hERG) potassium channel (human, UniProt Q12809);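 further: peak tail current of the secondary pulse compared with the same well before compound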
- Sequence (Q12809 whole entry, looked up): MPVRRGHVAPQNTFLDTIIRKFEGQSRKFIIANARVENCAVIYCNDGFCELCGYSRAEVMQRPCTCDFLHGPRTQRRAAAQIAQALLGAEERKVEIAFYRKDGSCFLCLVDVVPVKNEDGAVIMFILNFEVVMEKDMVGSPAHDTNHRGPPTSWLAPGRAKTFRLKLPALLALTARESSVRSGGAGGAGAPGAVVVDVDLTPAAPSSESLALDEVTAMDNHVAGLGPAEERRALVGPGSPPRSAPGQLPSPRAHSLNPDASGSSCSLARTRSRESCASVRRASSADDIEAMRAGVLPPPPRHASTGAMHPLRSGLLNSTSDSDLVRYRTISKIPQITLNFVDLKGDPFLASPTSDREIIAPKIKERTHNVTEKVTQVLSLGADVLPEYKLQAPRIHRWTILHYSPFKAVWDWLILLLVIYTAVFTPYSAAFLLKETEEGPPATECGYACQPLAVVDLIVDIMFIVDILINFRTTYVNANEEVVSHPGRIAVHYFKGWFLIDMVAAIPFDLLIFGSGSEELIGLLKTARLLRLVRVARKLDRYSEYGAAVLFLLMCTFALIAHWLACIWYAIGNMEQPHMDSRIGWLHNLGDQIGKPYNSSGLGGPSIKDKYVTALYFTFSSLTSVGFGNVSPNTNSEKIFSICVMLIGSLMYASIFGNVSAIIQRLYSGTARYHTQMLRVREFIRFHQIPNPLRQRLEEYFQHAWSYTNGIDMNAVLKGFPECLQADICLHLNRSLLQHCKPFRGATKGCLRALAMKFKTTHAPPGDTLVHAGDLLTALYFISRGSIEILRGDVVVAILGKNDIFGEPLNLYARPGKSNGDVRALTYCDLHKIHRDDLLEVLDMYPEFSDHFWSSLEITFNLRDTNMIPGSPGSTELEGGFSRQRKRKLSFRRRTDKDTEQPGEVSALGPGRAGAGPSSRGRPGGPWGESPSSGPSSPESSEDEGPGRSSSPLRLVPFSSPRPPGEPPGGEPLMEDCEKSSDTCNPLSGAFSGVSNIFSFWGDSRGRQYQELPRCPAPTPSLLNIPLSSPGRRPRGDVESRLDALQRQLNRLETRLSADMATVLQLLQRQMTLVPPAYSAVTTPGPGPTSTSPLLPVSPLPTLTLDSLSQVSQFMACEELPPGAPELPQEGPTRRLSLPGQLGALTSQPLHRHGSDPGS
- MEASUREMENT NOTES: primary screen, population patch clamp on CHO cells stably expressing hERG; higher = less effect of the substance
The whole screen tested about 310,000 compounds, of which about 14,000 (4.5%) showed an effect of 50% or more. The effect is printed as a negative number. For the sample, strong results were picked, then their nearest neighbours and some compounds at random.
Overview of reported hERG current change (%, negative = inhibition) at 10uM across a group of compounds:
Report the value in % with no unit label.

The cases that follow already have their hERG current change (%, negative = inhibition) at 10uM on record.
Task: Please look up its hERG current change (%, negative = inhibition) at 10uM: C#CCN(C(=O)c1ccc(OC)c(OC2CCN(C(C)C)CC2)c1)C1CCCCC1
Output: -46.4

Task: Please look up its hERG current change (%, negative = inhibition) at 10uM: O=C(NN1C(=O)CSC1=S)C(=O)NN1C(=O)CSC1=S
Output: 25.3

Task: Please look up its hERG current change (%, negative = inhibition) at 10uM: COCCN(CCOC)S(=O)(=O)c1ccc(NC(=O)c2cnccn2)cc1
Output: 13.1

Task: Please look up its hERG current change (%, negative = inhibition) at 10uM: CCCOc1ccc(C(=O)C(CN2CCCC2)c2ccccc2)cc1.Cl (stereo not drawn)
Output: -65.8

Task: Please look up its hERG current change (%, negative = inhibition) at 10uM: c1ccc2c(-c3nnc(SCc4cn5ccccc5n4)o3)c[nH]c2c1
Output: -4.5

Task: Please look up its hERG current change (%, negative = inhibition) at 10uM: CC(C)OC(=O)CC(=O)CSc1nc2c(cc1C#N)CCCCCC2
Output: -4.33

Task: Please look up its hERG current change (%, negative = inhibition) at 10uM: CCCCOc1ccc(C(=O)C(CN2CCOCC2)c2ccccc2)cc1 (stereo not drawn)
Output: -1.42

Task: Please look up its hERG current change (%, negative = inhibition) at 10uM: N#Cc1c(N(CCO)CCO)nc(N)c2c(N)nc3c(c12)CC(=O)N3CC1CCCO1 (stereo not drawn)
Output: 10

Task: Please look up its hERG current change (%, negative = inhibition) at 10uM: CCN(CC(=O)NCc1cccs1)C(=O)COc1ccc(C(N)=O)cc1
Output: 6.69

Task: Please look up its hERG current change (%, negative = inhibition) at 10uM: CCCOc1ccc(C(=O)C(CN2CCOCC2)c2ccccc2)cc1 (stereo not drawn)
Output: -8.97

***
Task: Please look up its hERG current change (%, negative = inhibition) at 10uM: O=C(Nc1cccc(C(F)(F)F)c1)c1cc(S(=O)(=O)N2CCCCC2)ccc1N1CCOCC1
Output: -8.02

Task: Please look up its hERG current change (%, negative = inhibition) at 10uM: O=C(O)C(=O)O.O=C(c1ccccc1)c1ccc(OCCOCCN2CCN(Cc3ccccc3)CC2)cc1
Output: -78.9

Task: Please look up its hERG current change (%, negative = inhibition) at 10uM: Cc1ccc(-n2c(SCC(=O)O)nc3c(sc(=S)n3-c3ccc(C)c(C)c3)c2=O)cc1
Output: 14

Task: Please look up its hERG current change (%, negative = inhibition) at 10uM: NNC(=O)c1ccc(COCC(F)(F)C(F)F)cc1
Output: 14.5

Task: Please look up its hERG current change (%, negative = inhibition) at 10uM: Cc1ccc2[nH]cc(CCCN3C(=O)c4ccccc4C3=O)c2c1
Output: -51.4

Task: Please look up its hERG current change (%, negative = inhibition) at 10uM: CC(=O)Nc1cccc(NC(=O)c2cc([N+](=O)[O-])ccc2N2CCCCC2)c1
Output: -69.3

Task: Please look up its hERG current change (%, negative = inhibition) at 10uM: CCCCOc1ccc(C(=O)N2CCC(C)CC2)cc1
Output: -9.48

Task: Please look up its hERG current change (%, negative = inhibition) at 10uM: CCN(CC)C(=O)CSc1ccccc1N
Output: 13

Task: Please look up its hERG current change (%, negative = inhibition) at 10uM: CCc1ccc(OCCOCCN2CCN(C)CC2)cc1.O=C(O)C(=O)O
Output: 4.8

Task: Please look up its hERG current change (%, negative = inhibition) at 10uM: O=C(Nc1cccc(S(=O)(=O)N2CCCCC2)c1)c1cc([N+](=O)[O-])ccc1N1CCOCC1
Output: -64.2

Task: Please look up its hERG current change (%, negative = inhibition) at 10uM: O=C1c2ccccc2C(=O)N1CCCc1c[nH]c2ccc(Cl)cc12
Output: -19.3

Task: Please look up its hERG current change (%, negative = inhibition) at 10uM: O=[N+]([O-])c1ccc(N2CCN(c3ccccc3F)CC2)c(S(=O)(=O)N2CCOCC2)c1
Output: -5.12

Task: Please look up its hERG current change (%, negative = inhibition) at 10uM: O=C(O)C(=O)O.O=C(c1ccccc1)c1ccc(OCCCN2CCCC2)cc1
Output: -70.6

Task: Please look up its hERG current change (%, negative = inhibition) at 10uM: CCN(CC)S(=O)(=O)c1cccc(NC(=S)NC(=O)/C=C/c2ccc(S(=O)(=O)N3CCOCC3)cc2)c1
Output: -6.82

Task: Please look up its hERG current change (%, negative = inhibition) at 10uM: C[C@@H](NC(=O)c1nc[nH]c1C(=O)NC1CCN(C(=O)OC(C)(C)C)CC1)c1ccccc1
Output: -14.4

Task: Please look up its hERG current change (%, negative = inhibition) at 10uM: CCOc1ncccc1C(=O)OCC(=O)c1cc(C)n(Cc2ccco2)c1C
Output: -7.34

Task: Please look up its hERG current change (%, negative = inhibition) at 10uM: Cc1ccc(C(C(=O)NC(C)(C)C)N(C(=O)c2csnn2)c2ccccc2F)o1 (stereo not drawn)
Output: -9.84

Task: Please look up its hERG current change (%, negative = inhibition) at 10uM: Cc1sc2ncn(CC(=O)NCc3ccco3)c(=O)c2c1-c1ccccc1
Output: -11.8

Task: Please look up its hERG current change (%, negative = inhibition) at 10uM: NC(N)=NCCCC(NC(=O)c1ccccc1)C(=O)Nc1ccc2ccccc2c1 (stereo not drawn)
Output: 12.5
